Source: the supplement of paper PMC8007513

Test system: Trichoderma virens ATCC 9645
Experiment: growth yield (OD600) with compound + IPBC relative to untreated control; higher = less growth inhibition
Settings: compound concentration: 100 uM; IPBC concentration: 200 ng/ml; 72 h
Counter-ions that a name gives are not always drawn. About 130 (10%) of roughly 1,300 compounds showed an effect of 50% or more. This excerpt belongs to a sample that is enriched for strong results.
Parameter measured: growth yield (%)
Reply numerically in %, unit not repeated.

Would you please look over these solved cases?
Cc1cc(N)c2ccccc2[n+]1CCCCCCCCCC[n+]1c(C)cc(N)c2ccccc21 [Dequalinium dichloride] + CCCCNC(=O)OCC#CI [3-iodo-2-propynyl butylcarbamate (IPBC)] ... 2.94
O=C1O[C@H]([C@@H](O)CO)C(O)=C1O [Ascorbic acid] + CCCCNC(=O)OCC#CI [3-iodo-2-propynyl butylcarbamate (IPBC)] ... 96.3

Query block: Would you mind telling me what growth yield value was observed for CCCCS(=O)(=O)N[C@@H](Cc1ccc(OCCCCC2CCNCC2)cc1)C(=O)O [Tirofiban hydrochloride] + CCCCNC(=O)OCC#CI [3-iodo-2-propynyl butylcarbamate (IPBC)] ?
Result block: 91.3

----------
System: Trichoderma virens ATCC 9645
Assay: growth yield (OD600) with compound + IPBC relative to untreated control; higher = less growth inhibition
Conditions: compound concentration: 100 uM; IPBC concentration: 200 ng/ml; 40 h
Structures can show the parent of a compound that is named as a salt. The campaign covered roughly 1,300 compounds. About 130 (10%) showed an effect of 50% or more. The list comes from a sample in which strong results are over-represented; it also holds close analogues and randomly drawn compounds.
Parameter measured: growth yield

Past entries and their recorded results:
Cc1ccc(C(=O)c2cc(O)c(O)c([N+](=O)[O-])c2)cc1 [Tolcapone] + CCCCNC(=O)OCC#CI [3-iodo-2-propynyl butylcarbamate (IPBC)] ... 47.5%
CN(C)[C@@H]1C(O)=C(C(N)=O)C(=O)[C@@]2(O)C(O)=C3C(=O)c4c(O)ccc(Cl)c4[C@@](C)(O)[C@H]3C[C@@H]12 [Chlortetracycline hydrochloride] + CCCCNC(=O)OCC#CI [3-iodo-2-propynyl butylcarbamate (IPBC)] ... 77.2%
CCC[C@@H]1C[C@@H](C(=O)N[C@@H]([C@H]2O[C@H](SC)[C@H](O)[C@@H](O)[C@H]2O)[C@@H](C)O)N(C)C1 [Lincomycin hydrochloride] + CCCCNC(=O)OCC#CI [3-iodo-2-propynyl butylcarbamate (IPBC)] ... 85.8%

Okay, next one:
Query block: Reported growth yield, molecule CCSc1ccc2c(c1)N(CCCN1CCN(C)CC1)c1ccccc1S2 [Thiethylperazine dimalate] + CCCCNC(=O)OCC#CI [3-iodo-2-propynyl butylcarbamate (IPBC)] : ____
Result block: 4.45%

----------
List of growth yield values.
Test system: Trichoderma virens ATCC 9645
Assay: growth yield (OD600) with compound + IPBC relative to untreated control; higher = less growth inhibition
Details: compound concentration: 100 uM; IPBC concentration: 200 ng/ml; 72 h
Structures can show the parent of a compound that is named as a salt. The whole screen tested about 1,300 compounds, of which about 130 (10%) showed an effect of 50% or more. The sample holds strong results, similar compounds and a random draw of the others, so the mix is not that of the screen.
The reply should contain only the number, in %.

Sample answers from the record:
O=c1n(CCCN2CCN(c3cccc(Cl)c3)CC2)nc2ccccn12 [Trazodone hydrochloride] + CCCCNC(=O)OCC#CI [3-iodo-2-propynyl butylcarbamate (IPBC)] ... 86.1
CN1CCN(CCCN2c3ccccc3Sc3ccc(S(=O)(=O)N(C)C)cc32)CC1 [Thioproperazine dimesylate] + CCCCNC(=O)OCC#CI [3-iodo-2-propynyl butylcarbamate (IPBC)] ... 97.1
CCCCOC(=O)c1ccc(O)cc1 [Butylparaben] + CCCCNC(=O)OCC#CI [3-iodo-2-propynyl butylcarbamate (IPBC)] ... 46.9
C[C@]12C/C(=C/O)C(=O)C[C@@H]1CC[C@@H]1[C@@H]2CC[C@@]2(C)[C@H]1CC[C@]2(C)O [Oxymetholone] + CCCCNC(=O)OCC#CI [3-iodo-2-propynyl butylcarbamate (IPBC)] ... 105
CN1CCN(CCCN2c3ccccc3Sc3ccc(Cl)cc32)CC1 [Prochlorperazine dimaleate] + CCCCNC(=O)OCC#CI [3-iodo-2-propynyl butylcarbamate (IPBC)] ... 2.73

With those in mind, consider the next compound.
Query block: // query growth yield value for entry CN1CCC[C@@H]1CCO[C@](C)(c1ccccc1)c1ccc(Cl)cc1 [Clemastine fumarate] + CCCCNC(=O)OCC#CI [3-iodo-2-propynyl butylcarbamate (IPBC)]
Result block: 92.4
